B1: DULLARD (parent)
chain: LVVFTASMEIYGSAVADKLDNSRS

variants of: B1; assay: protein stability index of a GFP-peptide fusion (GPS, HEK-293T) (PSI 1-6); higher = more stable; conditions: c terminus: a fixed tail appended;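 further: lentivirally expressed fusions sorted by FACS into six bins by GFP to DsRed ratio, PSI derived from sequencing read proportions per bin multiplied by bin number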
Attribute: protein stability index

# var, protein stability index
records = [
    ("V15T", 1.66),
    ("A6G", 1.57),
    ("S22M", 2.31),
    ("V15D", 1.11),
    ("A16K", 2.89),
    ("E9C", 2.96),
    ("M8K", 1.96),
    ("S22R", 3.98),
    ("L1H", 1.19),
    ("S7F", 2.06),
    ("D17Y", 2.6),
    ("D20R", 1.2),
    ("S13P", 2.48),
    ("A16E", 2.34),
    ("S7D", 1.55),
    ("S24C", 2.69),
    ("K18G", 1.99),
    ("S7G", 1.24),
    ("S24L", 2.2),
    ("A6P", 1.43),
    ("R23V", 2.42),
    ("I10E", 1.5),
    ("K18H", 1.88),
    ("A6H", 2.33),
    ("S22I", 2.37),
    ("A14C", 2.02),
    ("M8W", 1.05),
    ("V3E", 2.33),
    ("S7T", 2.48),
    ("L19P", 2.23),
    ("Y11I", 2.51),
    ("S24H", 2.46),
    ("V3R", 2.23),
    ("N21V", 1.5),
    ("Y11M", 1.56),
    ("V2S", 2.35),
    ("S7A", 1.85),
    ("S13Y", 2.58),
    ("G12F", 2.79),
    ("E9W", 2.46),
    ("A6L", 2.11),
    ("A14V", 1.69),
    ("V3T", 1.99),
    ("L19F", 2.41),
    ("S13T", 2.42),
    ("L1A", 1.73),
]

Data origin, for the record: the supplement of paper PMC10567573
